All values here come from patent US8609650B2.

Target: Axl (Homo sapiens, UniProt P30530)
Construct: endogenous in cells
Sequence (P30530 26-894): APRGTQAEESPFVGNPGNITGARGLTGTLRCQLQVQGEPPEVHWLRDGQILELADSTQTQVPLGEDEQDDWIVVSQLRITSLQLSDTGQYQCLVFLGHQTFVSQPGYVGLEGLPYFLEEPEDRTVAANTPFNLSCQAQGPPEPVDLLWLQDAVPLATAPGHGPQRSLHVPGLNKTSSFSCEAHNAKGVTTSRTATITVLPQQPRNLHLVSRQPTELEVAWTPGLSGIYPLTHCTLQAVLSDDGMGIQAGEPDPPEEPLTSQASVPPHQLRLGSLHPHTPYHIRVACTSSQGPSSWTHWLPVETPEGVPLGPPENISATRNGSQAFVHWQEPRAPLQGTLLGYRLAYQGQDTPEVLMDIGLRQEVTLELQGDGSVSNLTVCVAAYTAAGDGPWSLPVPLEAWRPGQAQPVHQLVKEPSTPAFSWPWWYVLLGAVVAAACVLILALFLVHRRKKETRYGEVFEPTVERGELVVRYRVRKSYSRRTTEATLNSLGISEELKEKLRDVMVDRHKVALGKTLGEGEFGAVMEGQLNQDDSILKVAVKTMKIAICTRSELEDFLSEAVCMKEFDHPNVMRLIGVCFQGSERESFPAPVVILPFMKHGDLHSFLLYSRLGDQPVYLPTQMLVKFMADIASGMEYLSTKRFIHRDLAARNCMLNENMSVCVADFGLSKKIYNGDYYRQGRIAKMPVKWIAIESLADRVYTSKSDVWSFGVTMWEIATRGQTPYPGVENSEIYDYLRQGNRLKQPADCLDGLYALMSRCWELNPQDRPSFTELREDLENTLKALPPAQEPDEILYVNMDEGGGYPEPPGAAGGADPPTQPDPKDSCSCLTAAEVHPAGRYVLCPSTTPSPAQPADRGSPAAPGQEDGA
Assay: Phospho-Akt In-Cell Western Assay (ability to inhibit Axl activity)
Conditions: Hela cells, stimulated by Axl-antibody cross-linking, phospho-Akt chemiluminescence normalized to relative cell number
Reported IC50 by item:
endpoint: IC50

>>> valuereported("Nc1nc(Nc2ccc(N3CCC(N4CCC(C(=O)O)CC4)CC3)c(F)c2)nn1-c1cc(-c2ccccc2)c2c(n1)C1CCN2CC1")
"< 1000 nM"
>>> valuereported("CN(C)C1CCN(c2ccc(Nc3nc(N)n(-c4cc(-c5cccs5)c5c(n4)C4CCC5C4)n3)cc2F)CC1 (stereo not shown)")
"< 1000 nM"
>>> valuereported("Nc1nc(Nc2ccc(N3CCC(N4CCCC4)CC3)c(F)c2)nn1-c1cc(-c2cccs2)c2c(n1)C1CCN2CC1")
"< 1000 nM"
>>> valuereported("Nc1nc(Nc2ccc3c(c2)CCC(=O)CC3)nn1-c1cc(-c2ccccc2)c2c(n1)C1CCN2CC1")
"1000 to 10000 nM"
>>> valuereported("Nc1nc(Nc2ccc(N3CCC(N4CCCC4)CC3)c(F)c2)nn1-c1cc(-c2ccncc2)c2c(n1)C1CCN2CC1")
"< 1000 nM"
>>> valuereported("CCOC(=O)CN1CCN(c2ccc(Nc3nc(N)n(-c4cc(-c5ccccc5)c5c(n4)C4CCN5CC4)n3)cc2F)CC1")
"< 1000 nM"
>>> valuereported("CN1CCN(c2ccc(Nc3nc(N)n(-c4ccc5c(n4)[C@@H]4C[C@H](C5)C4(C)C)n3)cc2)CC1")
"< 1000 nM"
